biological target: HLA-B*15:01; assay: IEDB peptide-MHC binding, purified MHC/direct/fluorescence; filed as Kd, often an IC50 or EC50 that approximates it; bounds were set here for any values at or beyond the usual limits of such assays; settings: source organism: Influenza A virus (A/swine/Hong Kong/5190/99(H3N2))
pKd: −log10 of the molar value.

>  <sequenceRecord>
YMFESKSMK

>  <pKd>
≤ 4.70

$$$$

* * *

target: HLA-A*68:01; assay: IEDB peptide-MHC binding, purified MHC/competitive/radioactivity; filed as Kd, often an IC50 or EC50 that approximates it; bounds were set here for any values at or beyond the usual limits of such assays; conditions: source organism: Hepacivirus hominis
pKd: −log10 of the molar value.

>  <sequenceRecord>
HSKRKCDEL

>  <pKd>
≤ 4.11

$$$$
